Reference source for all entries: ChEMBL document CHEMBL5143732

- method.description: Elimination half life in ICR (CD-1) mouse at 1 mg/kg, iv measured upto 24 hrs
- Format: ADME, organism-based
- assay.conditions: in vivo, read-out: beta t1/2 (converted)
Task for the reader: assign each of the following compounds its reported half-life.
Give bare numbers, in h.

mol=C[C@@H]1[C@H](O)[C@@H](C)/C=C/C=C/C=C/C=C/C=C/C=C/C=C/[C@H](O[C@@H]2O[C@H](C)[C@@H](O)[C@H](NC(=O)CCN)[C@@H]2O)C[C@@H]2O[C@](O)(C[C@@H](O)C[C@@H](O)[C@H](O)CC[C@@H](O)C[C@@H](O)CC(=O)O[C@H]1C)C[C@H](O)[C@H]2C(=O)N1CCN(CCO)CC1 assay_metric=half-life unit_info=h assay_result=11.2
mol=C[C@@H]1[C@H](O)[C@@H](C)/C=C/C=C/C=C/C=C/C=C/C=C/C=C/[C@H](O[C@@H]2O[C@H](C)[C@@H](O)[C@H](NC(=O)CN)[C@@H]2O)C[C@@H]2O[C@](O)(C[C@@H](O)C[C@@H](O)[C@H](O)CC[C@@H](O)C[C@@H](O)CC(=O)O[C@H]1C)C[C@H](O)[C@H]2C(=O)N1CCN(CCO)CC1 assay_metric=half-life unit_info=h assay_result=7.72
mol=CNCC(=O)N[C@@H]1[C@H](O)[C@H](O[C@H]2/C=C/C=C/C=C/C=C/C=C/C=C/C=C/[C@H](C)[C@@H](O)[C@@H](C)[C@H](C)OC(=O)C[C@H](O)C[C@H](O)CC[C@@H](O)[C@H](O)C[C@H](O)C[C@]3(O)C[C@H](O)[C@@H](C(=O)NCCN)[C@H](C2)O3)O[C@H](C)[C@H]1O assay_metric=half-life unit_info=h assay_result=20.5
mol=C[C@@H]1[C@H](O)[C@@H](C)/C=C/C=C/C=C/C=C/C=C/C=C/C=C/[C@H](O[C@@H]2O[C@H](C)[C@@H](O)[C@H](N)[C@@H]2O)C[C@@H]2O[C@](O)(C[C@@H](O)C[C@@H](O)[C@H](O)CC[C@@H](O)C[C@@H](O)CC(=O)O[C@H]1C)C[C@H](O)[C@H]2C(=O)O assay_metric=half-life unit_info=h assay_result=19.2
mol=CNCC(=O)N[C@@H]1[C@H](O)[C@H](O[C@H]2/C=C/C=C/C=C/C=C/C=C/C=C/C=C/[C@H](C)[C@@H](O)[C@@H](C)[C@H](C)OC(=O)C[C@H](O)C[C@H](O)CC[C@@H](O)[C@H](O)C[C@H](O)C[C@]3(O)C[C@H](O)[C@@H](C(=O)N4CCN(C(C)(C)CO)CC4)[C@H](C2)O3)O[C@H](C)[C@H]1O assay_metric=half-life unit_info=h assay_result=16.4

Look at each compound and report its half-life.
1. C[C@@H]1[C@H](O)[C@@H](C)/C=C/C=C/C=C/C=C/C=C/C=C/C=C/[C@H](O[C@@H]2O[C@H](C)[C@@H](O)[C@H](N)[C@@H]2O)C[C@@H]2O[C@](O)(C[C@@H](O)C[C@@H](O)[C@H](O)CC[C@@H](O)C[C@@H](O)CC(=O)O[C@H]1C)C[C@H](O)[C@H]2C(=O)NCCN
2. C[C@@H]1[C@H](O)[C@@H](C)/C=C/C=C/C=C/C=C/C=C/C=C/C=C/[C@H](O[C@@H]2O[C@H](C)[C@@H](O)[C@H](NC(=O)CN)[C@@H]2O)C[C@@H]2O[C@](O)(C[C@@H](O)C[C@@H](O)[C@H](O)CC[C@@H](O)C[C@@H](O)CC(=O)O[C@H]1C)C[C@H](O)[C@H]2C(=O)NCCN

**A:**
1. 17.5
2. 18.2

====

- method.description: Observed volume of distribution at steady state in ICR (CD-1) mouse at 1 mg/kg, iv measured upto 24 hrs
- Type: ADME, organism-based
- assay.conditions: in vivo, read-out: Vdss
Provide the recorded Vd for the entries that follow.
One number for each entry, in L/kg.

Example entries and their recorded answers appear below.
mol=C[C@@H]1[C@H](O)[C@@H](C)/C=C/C=C/C=C/C=C/C=C/C=C/C=C/[C@H](O[C@@H]2O[C@H](C)[C@@H](O)[C@H](NC(=O)CN)[C@@H]2O)C[C@@H]2O[C@](O)(C[C@@H](O)C[C@@H](O)[C@H](O)CC[C@@H](O)C[C@@H](O)CC(=O)O[C@H]1C)C[C@H](O)[C@H]2C(=O)NCCN assay_metric=Vd unit_info=L/kg assay_result=1.37
mol=CNCC(=O)N[C@@H]1[C@H](O)[C@H](O[C@H]2/C=C/C=C/C=C/C=C/C=C/C=C/C=C/[C@H](C)[C@@H](O)[C@@H](C)[C@H](C)OC(=O)C[C@H](O)C[C@H](O)CC[C@@H](O)[C@H](O)C[C@H](O)C[C@]3(O)C[C@H](O)[C@@H](C(=O)N4CCN(C(C)(C)CO)CC4)[C@H](C2)O3)O[C@H](C)[C@H]1O assay_metric=Vd unit_info=L/kg assay_result=1.44
mol=C[C@@H]1[C@H](O)[C@@H](C)/C=C/C=C/C=C/C=C/C=C/C=C/C=C/[C@H](O[C@@H]2O[C@H](C)[C@@H](O)[C@H](NC(=O)CCN)[C@@H]2O)C[C@@H]2O[C@](O)(C[C@@H](O)C[C@@H](O)[C@H](O)CC[C@@H](O)C[C@@H](O)CC(=O)O[C@H]1C)C[C@H](O)[C@H]2C(=O)N1CCN(CCO)CC1 assay_metric=Vd unit_info=L/kg assay_result=2.48

Here are 4 compounds. What values of Vd were reported for them?
1. C[C@@H]1[C@H](O)[C@@H](C)/C=C/C=C/C=C/C=C/C=C/C=C/C=C/[C@H](O[C@@H]2O[C@H](C)[C@@H](O)[C@H](N)[C@@H]2O)C[C@@H]2O[C@](O)(C[C@@H](O)C[C@@H](O)[C@H](O)CC[C@@H](O)C[C@@H](O)CC(=O)O[C@H]1C)C[C@H](O)[C@H]2C(=O)NCCN
2. CNCC(=O)N[C@@H]1[C@H](O)[C@H](O[C@H]2/C=C/C=C/C=C/C=C/C=C/C=C/C=C/[C@H](C)[C@@H](O)[C@@H](C)[C@H](C)OC(=O)C[C@H](O)C[C@H](O)CC[C@@H](O)[C@H](O)C[C@H](O)C[C@]3(O)C[C@H](O)[C@@H](C(=O)NCCN)[C@H](C2)O3)O[C@H](C)[C@H]1O
3. C[C@@H]1[C@H](O)[C@@H](C)/C=C/C=C/C=C/C=C/C=C/C=C/C=C/[C@H](O[C@@H]2O[C@H](C)[C@@H](O)[C@H](NC(=O)CN)[C@@H]2O)C[C@@H]2O[C@](O)(C[C@@H](O)C[C@@H](O)[C@H](O)CC[C@@H](O)C[C@@H](O)CC(=O)O[C@H]1C)C[C@H](O)[C@H]2C(=O)N1CCN(CCO)CC1
4. C[C@@H]1[C@H](O)[C@@H](C)/C=C/C=C/C=C/C=C/C=C/C=C/C=C/[C@H](O[C@@H]2O[C@H](C)[C@@H](O)[C@H](N)[C@@H]2O)C[C@@H]2O[C@](O)(C[C@@H](O)C[C@@H](O)[C@H](O)CC[C@@H](O)C[C@@H](O)CC(=O)O[C@H]1C)C[C@H](O)[C@H]2C(=O)O

**A:**
1.33
0.917
3.06
6.42

====

- method.description: Aqueous solubility of compound at pH 6.8
- Format: physicochemical
- assay.conditions: buffer
assay.metric: solubility (mg/mL)
Give bare numbers, in mg/mL.

// each listed molecule needs a value for solubility
1. CNCC(=O)N[C@@H]1[C@H](O)[C@H](O[C@H]2/C=C/C=C/C=C/C=C/C=C/C=C/C=C/[C@H](C)[C@@H](O)[C@@H](C)[C@H](C)OC(=O)C[C@H](O)C[C@H](O)CC[C@@H](O)[C@H](O)C[C@H](O)C[C@]3(O)C[C@H](O)[C@@H](C(=O)NCCN)[C@H](C2)O3)O[C@H](C)[C@H]1O
2. CNCC(=O)N[C@@H]1[C@H](O)[C@H](O[C@H]2/C=C/C=C/C=C/C=C/C=C/C=C/C=C/[C@H](C)[C@@H](O)[C@@H](C)[C@H](C)OC(=O)C[C@H](O)C[C@H](O)CC[C@@H](O)[C@H](O)C[C@H](O)C[C@]3(O)C[C@H](O)[C@@H](C(=O)NCCN)[C@H](C2)O3)O[C@H](C)[C@H]1O.NC(CCC(=O)O)C(=O)O

**A:**
1: 0.0585; 2: 106

====

- method.description: Therapeutic index ratio of MTD for acute toxicity in iv dosed SPF ICR mouse to ED50 for antifungal activity against Candida albicans ATTCC 14053 infected in SPF kunming mouse
- Assay type: organism-based
- assay.conditions: in vivo, read-out: TI
assay.metric: selectivity ratio
Numbers only.

mol=C[C@@H]1[C@H](O)[C@@H](C)/C=C/C=C/C=C/C=C/C=C/C=C/C=C/[C@H](O[C@@H]2O[C@H](C)[C@@H](O)[C@H](N)[C@@H]2O)C[C@@H]2O[C@](O)(C[C@@H](O)C[C@@H](O)[C@H](O)CC[C@@H](O)C[C@@H](O)CC(=O)O[C@H]1C)C[C@H](O)[C@H]2C(=O)NCCN assay_metric="selectivity ratio" assay_result=23.4

Consider the record given below.
**Q:** Given the compound "CNCC(=O)N[C@@H]1[C@H](O)[C@H](O[C@H]2/C=C/C=C/C=C/C=C/C=C/C=C/C=C/[C@H](C)[C@@H](O)[C@@H](C)[C@H](C)OC(=O)C[C@H](O)C[C@H](O)CC[C@@H](O)[C@H](O)C[C@H](O)C[C@]3(O)C[C@H](O)[C@@H](C(=O)NCCN)[C@H](C2)O3)O[C@H](C)[C@H]1O" , what is its reported selectivity ratio?
**A:** 35.7
